Provenance of the data: paper PMC9163592

- TARGET_OR_SYSTEM: IsdH NEAT3 (Staphylococcus aureus, UniProt Q931P4)
- Sequence (Q931P4 539-664): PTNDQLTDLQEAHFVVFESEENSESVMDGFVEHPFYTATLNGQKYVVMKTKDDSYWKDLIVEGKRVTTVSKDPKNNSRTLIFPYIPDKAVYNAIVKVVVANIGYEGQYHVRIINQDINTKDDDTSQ
- PROTOCOL_DESCRIPTION: biochemical
EXPERIMENTAL_READOUT: pKd
Answer as the number alone; pKd is minus log10 of concentration in mol/L.

Recall the recorded pKd for C=CC1=C(C)C2=Cc3c(C=C)c(C)c4[n]3[Fe]([Cl])[n]3c(c(C)c(CCC(=O)O)c3=CC3=NC(=C4)C(C)=C3CCC(=O)O)=CC1=N2 with IsdH NEAT3 (Staphylococcus aureus, UniProt Q931P4) and state it.
8.98

---

- TARGET_OR_SYSTEM: IsdH linker-NEAT3 (Staphylococcus aureus, UniProt Q931P4)
- Sequence (Q931P4 486-664): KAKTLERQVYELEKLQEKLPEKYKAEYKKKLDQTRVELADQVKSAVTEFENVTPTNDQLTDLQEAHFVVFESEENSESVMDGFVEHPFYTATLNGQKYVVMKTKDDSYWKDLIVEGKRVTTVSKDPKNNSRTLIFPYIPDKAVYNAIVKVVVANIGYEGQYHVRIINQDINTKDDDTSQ
EXPERIMENTAL_READOUT: Kd (nM)
Unit nM implied. Number only.

Find Kd (IsdH linker-NEAT3 (Staphylococcus aureus, UniProt Q931P4)) for the entry C=CC1=C(C)C2=Cc3c(C=C)c(C)c4[n]3[Fe]([Cl])[n]3c(c(C)c(CCC(=O)O)c3=CC3=NC(=C4)C(C)=C3CCC(=O)O)=CC1=N2
0.51
